Target: BRD4 BD2 (Homo sapiens, UniProt O60885)
Test Summary: AlphaScreen binding assay, BRD4 Bromodomain 2
Form field: IC50 (one value per entry).

> print(dat)
                                smiles.text  endpoint.name  reported.measurement
1  CC(=O)N1c2ccc(-c3ccc(C(=O)NCC(N)=O)cc3)cc2N(C(=O)OC(C)C)C[C@@H]1C           IC50          50 to 500 nM
2  CC(=O)N1c2ccccc2N(S(=O)(=O)Cc2ccc(C#N)cc2)C[C@@H]1C           IC50              > 500 nM
3  CC(=O)N1c2ccc(-c3ccc(S(=O)(=O)CC(C)C)cc3)cc2N(C(=O)OC2CCCCC2)C[C@@H]1C           IC50          50 to 500 nM

Query CC(=O)N1c2ccc(-c3cccc(S(=O)(=O)N(C)C)c3)cc2N(C(=O)C2CCC2)C[C@@H]1C on BRD4 BD2 (Homo sapiens, UniProt O60885); IC50 returned: 50 to 500 nM

* * *

Target: BRD4 BD2 (Homo sapiens, UniProt O60885)
Test Summary: AlphaScreen binding assay, BRD4 Bromodomain 2
Endpoint Name: IC50

> print(dat)
                                compound  endpoint.name  reported.measurement
1  CC(=O)N1c2ccccc2N(Cc2cccnc2)C[C@@H]1C           IC50              > 500 nM

The value of IC50 measured for the compound COc1ccc(CC(=O)N2C[C@H](C)N(C(C)=O)c3ccccc32)cc1 turned out to be > 500 nM

* * *

Form field: IC50 (one value per entry).
Target: BRD4 BD1 (Homo sapiens, UniProt O60885)
Test Summary: AlphaScreen binding assay, BRD4 Bromodomain 1

Here are 5 compounds together with their reported answers.
> print(dat)
                                   compound  reported.measurement
1  COC(=O)N1c2ccc(-c3ccc(C(=O)N(C)CC(=O)N(C)C)cc3)cc2N(C(=O)OC(C)C)C[C@@H]1C [Example I-561]              < 0.1 µM
2  CNC(=O)CN(C)C(=O)c1ccc(-c2ccc3c(c2)N(C(=O)OC(C)C)C[C@H](C)N3C(C)=O)cc1 [Example I-554]              < 0.1 µM
3  CC(=O)N1c2ccccc2N(Cc2cccnc2)C[C@@H]1C [Example I-924]               > 10 µM
4  CC(=O)N1c2ccc(-c3cnn(C4CC4)c3)cc2N(C(=O)Oc2ccc3cccnc3c2)C[C@@H]1C [Example I-1202]           0.1 to 1 µM
5  CC(=O)N1c2ccc(-c3ccc(C(=O)N(C)C)cc3)cc2N(C(=O)c2ccco2)C[C@@H]1C [Example I-809]           0.1 to 1 µM

The value of IC50 measured for the compound CC(=O)N1c2ccc(-c3cnn(CC(=O)N4CCC4)c3)cc2N(C(=O)OC(C)C)C[C@@H]1C [Example I-667] turned out to be 0.1 to 1 µM

The value of IC50 measured for the compound CC(=O)N1c2ccc(-c3ccc(NS(C)(=O)=O)cc3)cc2N(C(=O)C2CC2)C[C@@H]1C [Example I-349] turned out to be 0.1 to 1 µM

The value of IC50 measured for the compound CC(=O)N1c2ccccc2N(S(=O)(=O)c2ccc(C(F)(F)F)nc2)C[C@@H]1C [Example I-951] turned out to be > 10 µM

The value of IC50 measured for the compound CC(=O)N1c2ccc(-c3cnn(CCS(C)(=O)=O)c3)cc2N(C(=O)Oc2ccccn2)C[C@@H]1C [Example I-1318] turned out to be 1 to 10 µM

The value of IC50 measured for the compound CC(=O)N1c2ccc(-c3ccc(S(C)(=O)=O)cc3)cc2N(C(=O)C(C)C)C[C@@H]1C [Example I-242] turned out to be > 10 µM

The value of IC50 measured for the compound CC(=O)N1c2ccc(-c3cnn(C4CC4)c3)cc2N(c2nc3ccccc3o2)C[C@@H]1C [Example I-44] turned out to be 0.1 to 1 µM

The value of IC50 measured for the compound CC(=O)N1c2cnc(-c3ccc(S(C)(=O)=O)cc3)cc2N(C(=O)c2ccco2)C[C@@H]1C [Example I-57] turned out to be > 10 µM

The value of IC50 measured for the compound CC(=O)N1c2ccc(-c3ccc(S(C)(=O)=O)cc3)cc2N(C(=O)c2nccn2C)C[C@@H]1C [Example I-784] turned out to be > 10 µM

The value of IC50 measured for the compound CC(=O)N1c2ccc(-c3cnn(C4CCCS(=O)(=O)C4)c3)cc2N(C(=O)OC2CCC2)C[C@@H]1C (stereo partly drawn) [Example I-158] turned out to be 0.1 to 1 µM

The value of IC50 measured for the compound CC(=O)N1c2ccccc2N(Cc2cccc(C)c2)C[C@@H]1C [Example I-893] turned out to be > 10 µM
